// provenance: ChEMBL document CHEMBL1201862

Below, each of the compounds is paired with its reported GI50 value.
- System: IGROV-1
- PROCEDURE DETAILS: NCI tumour cell line growth inhibition, 48 h
Activity calls are given as the source filed them. Rule as the data show it: active = GI50 up to about 1.1 µM and inactive = higher.

Illustrative cases are given below, each with its answer.
1. CC(=O)Nc1ccc2nc(N)n[n+]([O-])c2c1	> 100 µM (inactive)
2. O=[N+]([O-])c1ccc(C2N3CCCCC3[C@@H]3c4[nH]c5ccccc5c4CCN23)cc1 (stereo partly specified)	24 µM (inactive)
3. CC(C)N1CC2CC(CN(C(=O)c3ccccc3)C2)C1.[O-][Cl+3]([O-])([O-])O	> 100 µM (inactive)
4. CN(C)c1ccc(/C(F)=C(F)/C(F)=C(F)/C(F)=C(\F)c2ccc(Br)cc2)cc1	27.6 µM (inactive)
5. O=S(=O)(O)C1CCC(O)C2NCCCC21 (stereo unspecified)	> 100 µM (inactive)

Could you tell me which GI50 is on file for CCC1=NC(C(F)(F)F)(C(F)(F)F)N=C(N2CCOCC2)O1 ?
> 100 µM (inactive)

Follow-up item: Cc1cn(C2CC(O)C(Cn3nncc3Cn3ncc(=O)[nH]c3=O)O2)c(=O)[nH]c1=O (stereo unspecified)
> 100 µM (inactive)

Can you handle N=c1oc2c(Cl)cc(Cl)cc2cc1C(=O)Nc1cccc2ccccc12 next?
5.32 µM (inactive)

Continue with CCOC(=O)c1c[nH]c2cc3c(cc2c1=O)CCS3
> 100 µM (inactive)

// next record Nc1ncnc2c1ncn2Cc1cccc(CCl)c1
16.3 µM (inactive)

And the next one, COc1cc2c(cc1OC)C(=O)/C(=C/c1cc(Cl)cc(Cl)c1)C2 ?
2.65 µM (inactive)

* * *

- Tested on: SK-MEL-28
- PROCEDURE DETAILS: NCI tumour cell line growth inhibition, 48 h
Calls of active or inactive are those of the source. No stated cut-off is given here; in the data, active = GI50 up to about 1.1 µM and inactive = higher.
READOUT: GI50

Previously resolved entries follow.
1. CCCCCCCCCCCCCCCCCCN(C)CC(COC)OP(=O)([O-])OCC[N+](C)(C)C (stereo not given)	15.7 µM (inactive)
2. CCCCOc1ccc(/C=C/C2=[N+](CCO)CCO2)cc1	> 100 µM (inactive)

Which GI50 reading was recorded for the compound CCOC(=O)c1c(C)n(Cc2ccccc2)c(=O)c2ccccc2c(=O)c2c(=O)ccc(=O)c1=2 ?
55.7 µM (inactive)

Same question, COc1cc2c(cc1OC)CC(N=[N+]=[N-])c1cc(OC)c(OC)cc1/C=C\2 (stereo not given) this time
89.1 µM (inactive)

Can you check CCOC(=O)c1ccc(NC(NC(=O)CC)(C(F)(F)F)C(F)(F)F)cc1 next?
> 100 µM (inactive)

Can you check CCCC(O)[C@@H](O)c1ccc2c(c1O)C(=O)c1c(OC)cccc1C2=O (stereo not given in full) next?
66.4 µM (inactive)

What do we get for Cc1ccc2nc(Cl)c(/C=N/N3C(=O)/C(=C/c4ccc(N(C)C)cc4)N=C3c3ccccc3)cc2c1 ?
> 100 µM (inactive)

Now the compound COc1ccccc1N1CCN(CCCCNC(=O)c2ccc([N+](=O)[O-])o2)CC1
25.1 µM (inactive)

Repeat for the following compound: CC[N+]1(C)CCC(O)(c2ccc(Cl)cc2)C(C(=O)c2ccc(Cl)cc2)C1 (stereo not given)
16 µM (inactive)

Quick one: O=P1(NCCCl)OCCCN1CCCl (stereo not given) [IFOSFAMIDE]
385 µM (inactive)

* * *

- Test system: COLO 205
- PROCEDURE DETAILS: NCI tumour cell line growth inhibition, 48 h
Calls of active or inactive are those of the source. Rule as the data show it: active = GI50 up to about 1.1 µM and inactive = higher. Where a SMILES comes first, the peptide text is derived from it. [ ]: non-standard residue; d: D form. The star is where a group is joined. ξ: configuration not given here. ξPhe(4-NO2) = NC(Cc1ccc([N+](=O)[O-])cc1)C(=O)O; Boc = CC(C)(C)OC(=O)*
API: response.call in active, inactive

Please review the entries below; each comes with its answer.
1) CC1OC(OC2C(CO)OC(O[C@H]3CC[C@@]4(C)C(=CC[C@H]5[C@@H]6C[C@@H]7O[C@](O)(CC[C@H](CO)COC8OC(CO)C(O)C(O)C8O)[C@@H](C)[C@@H]7[C@@]6(C)CC[C@@H]54)C3)C(OC3OC(C)C(O)C(O)C3O)C2O)C(O)C(O)C1O (some centres undefined)	inactive
2) Cn1c2ccccc2c2[nH]cc3nc4ccccc4c-3c21	inactive
3) O=C(Nc1ccccc1)Oc1ccc(C(=S)Nc2ccc(Br)cc2)cc1	inactive
4) CCNC(=O)CNC(=O)C(Cc1ccc([N+](=O)[O-])cc1)NC(=O)OC(C)(C)C (centres undefined) (Boc-[ξPhe(4-NO2)]-Gly-NHEt)	inactive
5) O=[N+]([O-])c1ccc(C2N3CCCCC3[C@@H]3c4[nH]c5ccccc5c4CCN23)cc1 (some centres undefined)	inactive
6) COc1ccc2c(c1)c1nn(CCN(C)C)c3ccc4c(=O)n(CCN(C)C)c(=O)n2c4c13	active

Please state the recorded outcome for this compound: O=S(=O)(c1ccccc1)n1c2cc3cccnc3nc2c2cccnc21
inactive

Input COc1ccc(CC2C(=O)NC(C)C(=O)N(C)C3Cc4ccc(cc4)Oc4cc(ccc4O)CC(C(=O)NC(C)C(=O)NC(C)C(=O)N2C)N(C)C3=O)cc1 (centres undefined)
active

Consider next the compound CC1C=CC(C)C2(O)C(=O)NC(O)C12 (centres undefined) in the same way.
inactive

And the next one, CN/C(=N\c1ccc(OC)c2ccccc12)SC ?
inactive

* * *

- System: SNB-78
- PROCEDURE DETAILS: NCI tumour cell line growth inhibition, 48 h
The source made the active and inactive calls. Cut-off read from the data, not from the text of the source: active = GI50 up to about 1.1 µM and inactive = higher.
The entries below are paired with their reported GI50.

1) CC(C)OC(=O)c1cccnc1/C=N/O	> 100 µM (inactive)

Which GI50 reading was recorded for the compound N#C/C(=C1\SC(C(N)=O)=C(N)N1c1ccccc1)c1nc2ccccc2[nH]1 ?
44.4 µM (inactive)

Input CC1(C)CCc2cc3c(-c4ccccc4)cc(=O)oc3cc2O1
85.7 µM (inactive)

What do you get for Cc1ccccc1NC(=O)C(=O)Cc1nc2ccccc2s1 ?
92.5 µM (inactive)

What do we get for CCOC(=O)NC(=O)c1cn(CCN2CCN(C(=O)CCCCCCCCCCNc3ncnc4[nH]cnc34)CC2)c(=O)[nH]c1=O ?
32.4 µM (inactive)

* * *

- Tested on: TK-10
- PROCEDURE DETAILS: NCI tumour cell line growth inhibition, 48 h
Activity calls are given as the source filed them. Rule as the data show it: active = GI50 up to about 1.1 µM and inactive = higher.
Select the matching outcome among active, inactive

1. COc1ccc2nc3ccccc3c(NCCCN(C)CCCl)c2c1	active
2. [O-][S+]1Nc2cccc(C(F)(F)F)c2S1 (stereo unspecified)	inactive
3. S=C1ON=C(c2ccccc2)/C1=C/Nc1ccccc1	inactive
4. NC(CS)C(=O)NCCNc1ccc(NCCNC(=O)C(N)CS)c2c1C(=O)c1c(O)ccc(O)c1C2=O (stereo unspecified)	active
5. NC1CCC2(O)c3ccccc3C2C1 (stereo unspecified)	inactive
6. N=c1oc2ccccc2cc1C(=O)Nc1nccs1	inactive
7. COC(c1ccc(C(C)(C)C)cc1)(c1ccc(C(C)(C)C)cc1)c1cc(C(O)(c2cc(C(OC)(c3ccc(C(C)(C)C)cc3)c3ccc(C(C)(C)C)cc3)c(C)cc2C)c2cc(C(OC)(c3ccc(C(C)(C)C)cc3)c3ccc(C(C)(C)C)cc3)c(C)cc2C)c(C)cc1C	inactive
8. CN1NC(c2ccccc2)=C(C#N)C(=O)CC1c1ccc(F)cc1 (stereo unspecified)	inactive
9. CCc1cccc(C(C)C)c1NC1=C([n+]2ccc(C)cc2)C(=O)c2ccccc2C1=O.[O-][Cl+3]([O-])([O-])[O-]	inactive
10. O=C(Nc1ccccc1)c1ccc(Cl)c([N+](=O)[O-])c1	inactive

What classification did COc1cccc(C(NC2=NCCC=N2)c2cc3c(cc2O)OCO3)c1O (stereo unspecified) end up with in this test?
inactive

Check O=c1c2ccccc2oc2nc3n(c(=O)c12)CCCS3 too.
inactive

* * *

- Tested on: RPMI-8226
- PROCEDURE DETAILS: NCI tumour cell line growth inhibition, 48 h
The source made the active and inactive calls. Rule as the data show it: active = GI50 up to about 1.1 µM and inactive = higher.
Respond only with the outcome that fits, drawn from active, inactive

1. CCOC(=O)N[C@H]1CCc2cc(OC)c(OC)c(OC)c2-c2ccc(SC)c(=O)cc21	active

Please state the recorded outcome for this compound: Cc1cn(C2CC(O)C(Cn3nncc3Cn3ncc(=O)[nH]c3=O)O2)c(=O)[nH]c1=O (stereo not given)
inactive

What do you get for CC1=CCC[C@@]2(C)C(CC[C@@H]2C(C)/C=C/C(C)C)c2ccc(cc2C(=O)O)C[C@@H](O)CC1 (stereo not given in full) ?
inactive

Can you handle CN(C)CCN1C(=O)c2cccc3cc(N)cc(c23)C1=O [AMONAFIDE] next?
inactive

CCOC(=O)/C=C1\CCCC12OCCO2 , same question.
inactive

Same for CCOc1ccc(C(C)c2cc3c(cc2OC)OCO3)cc1 (stereo not given)
active

Param item: COc1ccccc1N1CCN(CCCCNC(=O)c2ccc([N+](=O)[O-])o2)CC1
inactive

How about this compound: CSC(CC(=O)O)C(=O)O (stereo not given)
inactive

Likewise for Cc1nc(O)c(Cc2ccccc2O)c(-c2ccccc2)n1 ?
inactive

Another: CC(=O)N1N=C(c2ccccc2Nc2ccccc2C2=NN(C(C)=O)C(c3ccccc3)O2)OC1c1ccccc1 (stereo not given)
inactive
